B1: TRIM39 (parent)
chain: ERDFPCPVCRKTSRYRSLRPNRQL

Variants of: B1
method notes: protein stability index of a GFP-peptide fusion (GPS, HEK-293T) (PSI 1-6); higher = more stable;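 also: lentivirally expressed fusions sorted by FACS into six bins by GFP to DsRed ratio, PSI derived from sequencing read proportions per bin multiplied by bin number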
experimental parameters: c terminus: a fixed tail appended
Rule: MET for protein stability index not less than 2, NOT MET for anything less.

**Query** Given F4Q , state whether its protein stability index is at least 2.
**Result** MET

**Query** Note, next up: R19T
**Result** NOT MET

**Query** Note, next up: N21H
**Result** NOT MET

**Query** Note, next up: L18S
**Result** MET

**Query** Note, next up: F4G
**Result** MET

**Query** Note, next up: R2Q
**Result** MET

**Query** Note, next up: V8N
**Result** MET

**Query** Note, next up: R2W
**Result** MET

**Query** Note, next up: D3T
**Result** NOT MET

**Query** Note, next up: L18E
**Result** MET

**Query** Note, next up: P20N
**Result** NOT MET

**Query** Note, next up: R16G
**Result** NOT MET

**Query** Note, next up: R22N
**Result** NOT MET
